# System: WT-BaF3 cells
# assay-overview: Cell antiproliferative activity assay (CCK-8), WT-BaF3 (broad-spectrum cytotoxicity)
# Assay type: cell-based
# recorded-conditions: 72 h; WT-BaF3 cells (IL-3 supplemented), CCK-8, 3 days incubation
observable: IC50

Ask: Quick one: IC50 for `Cc1nccnc1-c1cc(C2CC2)c2nc(Nc3cc(O)c(P(C)(C)=O)cc3F)ncc2c1` ?
Reply: > 2500 nM

Ask: Quick one: IC50 for `COc1cc(P(C)(C)=O)ccc1Nc1ncc2cc(-c3c(C)ncnc3C)cc(C(C)C)c2n1` ?
Reply: > 2500 nM

Ask: Quick one: IC50 for `COc1cc(Nc2ncc3cc(-c4nccnc4C)cc(C(C)C)c3n2)c(F)cc1P(C)(C)=O` ?
Reply: 500 to 2500 nM

Ask: Quick one: IC50 for `Cc1nn(CCO)cc1Nc1ncc2cc(-c3ccccn3)cc(C(F)(F)F)c2n1` ?
Reply: > 2500 nM

The values you see were collected from patent EP4803513A1.
